These measurements were taken from ChEMBL document CHEMBL1124276.

biological target: Dihydrofolate reductase (Escherichia coli); test: Thermodynamic Dissociation Constant for compound-Phe31-dihydrofolate reductase (DHFR) complex at pH 6
Sequence (P0ABQ4 whole entry, looked up): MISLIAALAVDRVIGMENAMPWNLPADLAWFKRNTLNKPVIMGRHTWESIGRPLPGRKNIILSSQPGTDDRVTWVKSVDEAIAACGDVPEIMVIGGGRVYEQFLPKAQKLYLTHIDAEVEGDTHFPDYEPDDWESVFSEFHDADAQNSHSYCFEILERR
Readout label: Kd (nM)
Please respond with the number in nM and leave the unit unwritten.

Give recorded Kd. `Cc1nc2nc(N)nc(N)c2nc1C`
1600

* * *

target: UniProtKB P0ABQ4; assay: Thermodynamic Dissociation Constant for compound-Tyr31-dihydrofolate reductase (DHFR) complex at pH 6
Readout label: Kd (µM)
Please respond with the number in µM and leave the unit unwritten.

Give recorded Kd. `Cc1nc2nc(N)nc(N)c2nc1C`
3.9

* * *

biological target: Dihydrofolate reductase (Escherichia coli); experiment: Inhibition constant for Val31-dihydrofolate reductase (DHFR)-NADPH-Compound complex
Readout label: pKi
// pKi: -log10(molar conc.)

Output reported pKi of the molecule `Cc1nc2nc(N)nc(N)c2nc1C` on Dihydrofolate reductase (Escherichia coli).
5.04
